Test system: mice
test_method_notes: Acute toxicity after a single oral administration in mice (Miller & Tainter)
Format: in vivo
condition_notes: 1000 mg/kg, 10 mice per lot, suspension of Tween 80 + distilled water
measurement_label: Mortality at end of 7th day

compound="CCOC(=O)C(=O)Nc1nc(-c2ccccc2)cs1 [Example 1, Ethyl-(4-phenyl-2-thiazolyl)-oxamate]" target_or_test_system=mice measurement=1
compound="CCOC(=O)C(=O)Nc1nc(-c2ccc(OC)cc2)cs1 [Example 3]" target_or_test_system=mice measurement=1
compound="Cc1cccc(-c2csc(NC(=O)C(=O)OCc3ccccc3)n2)c1 [Example 4]" target_or_test_system=mice measurement=1
compound="O=C(Nc1nc(-c2ccccc2Br)cs1)C(=O)OCc1ccccc1 [Example 5]" target_or_test_system=mice measurement=2
compound="CCOC(=O)C(=O)Nc1nc(-c2ccc(Cl)cc2)cs1 [Example 2]" target_or_test_system=mice measurement=0

Data credit: patent US4246271A
